B1: POU domain, class 2, transcription factor 2, residues 200 to 269; numbered along this chain, P09086 (parent)
chain: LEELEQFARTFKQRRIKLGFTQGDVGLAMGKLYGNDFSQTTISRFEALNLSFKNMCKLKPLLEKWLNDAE

Variants of: B1
Test: abundance fitness (aPCA) (normalised: wild type 0, dead -1); higher = more abundant; growth selection in yeast, the domain comes from the species named
Details: Homo sapiens
Label scheme, based on abundance fitness: lo (below -0.1), med (-0.1 to below -0.05), hi (-0.05 or more)

Into which bin does this variant go? "V25T"
lo

Same question for "G30P" please.
lo

Same question for "Y33Q" please.
med

Same question for "E70S" please.
hi

Same question for "K17D" please.
hi

Same question for "L50Y" please.
lo

Same question for "N54M" please.
hi

Same question for "T10W" please.
lo

Same question for "D24A" please.
med

Same question for "L62Y" please.
med

Same question for "C56Y" please.
lo

Same question for "F45H" please.
lo

Same question for "M29T" please.
med

Same question for "K53R" please.
hi

Same question for "R15H" please.
lo

Same question for "V25R" please.
lo

Same question for "E5V" please.
med

Same question for "E3M" please.
lo

Same question for "I42K" please.
lo

Same question for "V25P" please.
lo

Same question for "L27Y" please.
hi

Same question for "C56G" please.
med

Same question for "A8S" please.
lo

Same question for "F37L" please.
med

Same question for "F20T" please.
lo

Same question for "A28I" please.
lo

Same question for "R9K" please.
hi

Same question for "T10Y" please.
hi

Same question for "A8L" please.
lo

Same question for "L61Q" please.
hi

Same question for "R44D" please.
med

Same question for "G30V" please.
med

Same question for "F20P" please.
lo

Same question for "T41S" please.
med

Same question for "F52T" please.
hi

Same question for "L18K" please.
lo

Same question for "K57S" please.
med

Same question for "K53Y" please.
med

Same question for "R9Q" please.
lo

Same question for "K53Q" please.
hi

Same question for "V25S" please.
lo

Same question for "G19F" please.
lo

Same question for "F52C" please.
med

Same question for "D68H" please.
lo

Same question for "L62Q" please.
lo

Same question for "D36H" please.
hi

Same question for "S38Y" please.
lo

Same question for "E2P" please.
lo

Same question for "Q6W" please.
med

Same question for "G30H" please.
hi

Same question for "S51T" please.
hi

Same question for "C56D" please.
med

Same question for "N54K" please.
hi

Same question for "E2T" please.
lo

Same question for "Q39F" please.
hi

Same question for "C56T" please.
hi

Same question for "G34P" please.
med

Same question for "K59A" please.
med

Same question for "F52R" please.
hi

Same question for "K31C" please.
med

Same question for "M29F" please.
lo

Same question for "T10E" please.
hi

Same question for "W65G" please.
lo

Same question for "K53D" please.
hi

Same question for "S43C" please.
lo

Same question for "R15K" please.
lo

Same question for "T10I" please.
med

Same question for "F11P" please.
lo

Same question for "T41K" please.
med

Same question for "A47E" please.
hi

Same question for "S51P" please.
hi

Same question for "W65C" please.
lo

Same question for "F45I" please.
lo

Same question for "T41H" please.
hi

Same question for "N35I" please.
lo

Same question for "N49A" please.
hi

Same question for "L50F" please.
med

Same question for "E3T" please.
lo

Same question for "M55E" please.
lo

Same question for "F20W" please.
med

Same question for "G30S" please.
hi

Same question for "D24Y" please.
med

Same question for "Y33E" please.
med

Same question for "K17L" please.
hi

Same question for "L27H" please.
hi

Same question for "D68R" please.
hi

Same question for "Q39D" please.
hi

Same question for "K57G" please.
hi

Same question for "F52Y" please.
med

Same question for "I16N" please.
hi
